The measurements presented in this section are drawn from PubChem BioAssay (NCI).

# Test system: HCC-2998 colon
# Assay summary: NCI-60 one-dose screen, 48 h (100 = growth as untreated, 0 = no growth, -100 = all killed)
# Experimental context: 10 µM unless noted
Compounds without any hit were thinned out: in the full panel of roughly 83,000, 20% have a hit.
Outcome measure: growth (%)
Just the number please, in %, no unit attached.

Problem: Any idea what its growth is? The compound is `C=C(CN1CCN(c2cccc(C(F)(F)F)n2)CC1)c1ccc(C(=O)Nc2ccccc2N)cc1`
Solution: -41

Problem: Cool, now `COc1ccc(/C=C2\N=C3Sc4cc(Cl)ccc4C(=O)N3C2=O)cc1`
Solution: 118

Problem: Cool, now CCC(C)[C@@H]1NC(=O)[C@@H]2CCCN2C(=O)[C@H](Cc2ccccc2)NC(=O)[C@@H]2CCCN2C(=O)[C@H](Cc2ccccc2)NC(=O)[C@@H]2CCCN2C(=O)[C@H](Cc2ccccc2)NC1=O (some centres undefined)
Solution: 106

Problem: Cool, now `COc1ncc(-c2ccc3ncnc(Nc4cccc(Cl)c4)c3c2)cc1NS(C)(=O)=O`
Solution: 56.8

Problem: Cool, now N#CC1=C(N)Oc2c(ccc3ccccc23)C1c1cccs1 (centres undefined)
Solution: 16.7

Problem: Cool, now `O=C(Nc1cccc2c1C(=O)c1cccc(Nc3cccc4c3C(=O)c3cccc(NC(=O)c5ccccc5)c3C4=O)c1C2=O)c1ccccc1`
Solution: 114

Problem: Cool, now `CC(=O)N1CC(Nc2ccc(OC(F)(F)F)cc2)=CC1=O`
Solution: 60.2

Problem: Cool, now `CCN(CC)CCCNc1cc(OC)cc2nc3cc(Cl)ccc3nc12`
Solution: 27.5

Problem: Cool, now CC(=O)OC1Oc2cc(C)c(C)cc2-c2oc(=O)c(-c3cc4ccc(N(C)C)cc4oc3=O)cc21 (centres undefined)
Solution: 106

Problem: Cool, now `Nc1ccc(N2CCOCC2)cc1`
Solution: 96.9

Problem: Cool, now `Clc1cccc(Nc2nc(Nc3cnc4ccccc4c3)c3[nH]cnc3n2)c1`
Solution: 100

Problem: Cool, now `CCCCN(CC)CCCCCCCCCCN1CCCc2cc(OC)ccc21`
Solution: -26

Problem: Cool, now `Cc1sc2nc3[nH]/c(=C\c4ccc(Cl)cc4)c(=O)n3c(=O)c2c1C`
Solution: 107

Problem: Cool, now `COc1cc(OC)c(/C=C/S(=O)(=O)Cc2ccc(OC)c(N)n2)c(OC)c1`
Solution: 18.8

Problem: Cool, now `Cn1cc(-c2csc(-c3cn(C)c4ncccc34)n2)c2ccccc21`
Solution: 37.6

Problem: Cool, now O=C1C=CC(Nc2ccccc2[N+](=O)[O-])C1Nc1ccccc1[N+](=O)[O-] (centres undefined)
Solution: 6.76

Problem: Cool, now `C[C@H](CCC(=O)O)[C@H]1CC[C@H]2[C@@H]3CC[C@@H]4/C(=C\c5ccco5)C(=O)/C(=C\c5ccco5)C[C@]4(C)[C@H]3CC[C@]12C`
Solution: 92.8

Problem: Cool, now `COc1ccccc1-c1ccc2c(N)c(C(=O)c3ccc4c(c3)OCO4)sc2n1`
Solution: 71.4

Problem: Cool, now `Cc1nc2nc(N)nc(N)c2nc1C`
Solution: 99

----------
# Test system: CCRF-CEM leukemia
# Assay summary: NCI-60 one-dose screen, 48 h
# Experimental context: 10 µM unless noted
The panel holds about 83,000 compounds, 20% with a hit somewhere; the sample as a whole holds those more often. Calls of active or inactive are those of the source. Rule for the calls: active = growth percent below 10; inactive = the rest.
Valid outcomes are listed here; reply with one: active, inactive

Problem: Hi team, can someone confirm the assay call for `CNC(=O)c1cc(Oc2ccc3nc(NC(=O)Nc4ccc(N5CCC(N(C)C)CC5)cc4)sc3c2)ccn1` ?
Solution: inactive

Problem: Cool, now `CCCCCCNC(=O)Oc1ccc(/C(=C(\C)c2ccccc2)c2ccc(OCCN(CC)CC)cc2)cc1`
Solution: inactive

Problem: Cool, now `COc1ccc(C(=O)/C=C/c2c[n+](=O)c3ccc(F)cc3n2[O-])cc1`
Solution: inactive

Problem: Cool, now CCCCCCCCCCCCCCCCCCNC(=O)[C@H]1CSC(c2ccc(OC)c(F)c2)N1 (some centres undefined)
Solution: active

Problem: Cool, now `Cn1c2ccccc2c2c3[nH]c(=O)[nH]c(=O)c3c3c4ccccc4n(C)c3c21`
Solution: inactive

Problem: Cool, now `COc1cc(OC)c(/C=C/S(=O)(=O)Cc2cnc(OC)c(N)c2)c(OC)c1`
Solution: inactive

Problem: Cool, now `COc1cc(OC)c(/C=C/S(=O)(=O)Cc2ccc(OC)c(N)n2)c(OC)c1`
Solution: active

Problem: Cool, now `O=C1C(Cl)=C(Cl)C(=O)c2c1nc1n2CCCC1`
Solution: inactive

Problem: Cool, now `CN1CCN(Cc2ccc(NC(=O)c3cncc(C#Cc4cnc(N)c5cccnc45)c3)cc2C(F)(F)F)CC1`
Solution: inactive

----------
# Test system: COLO 205 colon
# Assay summary: NCI-60 one-dose screen, 48 h
# Experimental context: 10 µM unless noted
Compounds without any hit were thinned out: in the full panel of roughly 83,000, 20% have a hit. The source made the active and inactive calls. Rule for the calls: active = growth percent below 10; inactive = the rest.
Valid outcomes are listed here; reply with one: active, inactive

Problem: Hi team, can someone confirm the assay call for `O=C(COCc1c(-c2ccccc2)no[n+]1[O-])Nc1ccc(C(=O)/C=C/c2ccc3c(c2)OCO3)cc1` ?
Solution: inactive

Problem: Cool, now `O=C(CCCN1CCOCC1)Nc1ccc(Cn2nnc3c2C(=O)c2nnn(Cc4ccc(NC(=O)CCCN5CCOCC5)cc4)c2C3=O)cc1`
Solution: active

Problem: Cool, now `CCCCCCCCCCCCCC1=NCCN1CCO`
Solution: active

Problem: Cool, now `Nc1nc(SCc2ccccc2)c2ncn(C3CCCC3)c2n1`
Solution: inactive

Problem: Cool, now `O=C1CCc2c(sc3[nH]c(=S)n(Cc4ccccc4)c(=O)c23)C1`
Solution: inactive

Problem: Cool, now `CCNS(=O)(=O)c1ncnc2nc[nH]c12`
Solution: inactive

Problem: Cool, now COc1cc(C2C(C(=O)c3cccs3)=C(O)C(=O)N2CCN2CCOCC2)cc(OC)c1OC (stereo not given)
Solution: inactive

Problem: Cool, now `COc1ccc2nc(NC(=O)c3cccnc3Nc3cc(OC)c(OC)c(OC)c3)sc2c1`
Solution: inactive

Problem: Cool, now `CN(C)C(=O)c1cc2cnc(Nc3ccc(-c4csc5c(=O)cc(N6CCNCC6)oc45)cc3)nc2n1C1CCCC1`
Solution: inactive

Problem: Cool, now CC(C)CC(CC1=CCC2CC1C2(C)C)C1=C(O)C(C)(C)C(=O)C(C)(C)C1=O (stereo not given)
Solution: active

Problem: Cool, now `O=C(/C=C/c1cccc(Br)c1)c1ccccc1`
Solution: inactive

Problem: Cool, now `C/C(=C(/c1ccc(O)cc1)c1ccc(OCCN(C)C)cc1)c1ccccc1`
Solution: inactive

Problem: Cool, now `O=S(=O)(NCCCNc1cc(-c2cn(-c3ccccc3)nc2-c2ccccc2)ccn1)c1ccc(C(F)(F)F)cc1`
Solution: inactive

Problem: Cool, now `Cc1ccc(/C=C2\Oc3cc(OCC(=O)c4ccc(Cl)cc4)ccc3C2=O)cc1`
Solution: inactive

Problem: Cool, now COc1cccc2c1C(=O)c1c(O)c3c(c(O)c1C2=O)C[C@@](O)(/C(C)=N/NC(=O)c1ccc(Cl)cc1)C[C@@H]3OC1CC(N)C(O)C(C)O1 (stereo not given in full)
Solution: active

Problem: Cool, now `COc1ccc(C(=O)COc2ccc(/C=C3\Oc4ccc(Cl)cc4C3=O)cc2)cc1`
Solution: inactive

Problem: Cool, now `CCN(CC)Cc1cc(Nc2c3ccccc3nc3cc(Cl)ccc23)ccc1O`
Solution: active

Problem: Cool, now `CC/C=C\C[C@H](F)C/C=C1/C(=O)C=C[C@@H]1C/C=C\CCCC(=O)OC`
Solution: active

Problem: Cool, now `COc1cccc(NC(=O)c2sc3nc4c(cc3c2N)CN(Cc2ccccc2)CC4)c1`
Solution: inactive

Problem: Cool, now `O=C1O[C@H]([C@H](O)CO)C(O)=C1O`
Solution: inactive

----------
# Tested on: HT29 colon
# Assay summary: NCI-60 one-dose screen, 48 h
# Experimental context: 10 µM unless noted
About 83,000 compounds went through this panel and 20% of them were active in at least one assay; those are over-represented in the sample as a whole. Calls of active or inactive are those of the source. The calls were made as follows: active = growth percent below 10; inactive = the rest.
Valid outcomes are listed here; reply with one: y for active, n for inactive

Problem: Hi team, can someone confirm the assay call for `COc1ccc(/C=C/C(=O)c2c(O)c(C)c(O)c3c2OC2=CC(O)=C(C(C)=O)C(=O)[C@]23C)cc1` ?
Solution: y

Problem: Cool, now `COc1ccccc1N1CCN(CCn2c(=O)c3c(c4ccccc4n3C)n(C)c2=O)CC1`
Solution: n

Problem: Cool, now `O=S(=O)(NCCCNc1cc(-c2cn(-c3ccccc3)nc2-c2cccc(O)c2)ccn1)c1ccccc1`
Solution: n

Problem: Cool, now `CC(=O)N1CC(Nc2ccc(OC(F)(F)F)cc2)=CC1=O`
Solution: y

Problem: Cool, now `CCN(CC)Cc1cc(Nc2c3ccccc3nc3cc(Cl)ccc23)ccc1O`
Solution: y

Problem: Cool, now `CC/C(=C(\c1ccccc1)c1ccc(OCCNC)cc1)c1ccccc1`
Solution: y

Problem: Cool, now CCCCNC(=O)NS(=O)(=O)c1ccc(N2N=C(c3cc(C)ccc3C)CC2c2cc(OC)c(OC)c(OC)c2)cc1 (centres undefined)
Solution: n

Problem: Cool, now COc1ccc(CN(c2ccc(C)cc2)C2OC(=O)c3ccccc32)cc1OC (centres undefined)
Solution: n

Problem: Cool, now `COc1nc2c(cc1S(=O)(=O)c1ccccc1)CCc1c-2cnn1-c1ccc(Cl)cc1`
Solution: n
